// provenance: patent US20220177604A1

biological target: T1, human immunoglobulin E (hIgE) (human, UniProt P01854-1 1-428); experiment: SPR competition, hIgE over hFcεRIα chip, pH 7.4
T1 construct: also called human IgE; Native IgE (Abcam)
T1 sequence (P01854 whole entry): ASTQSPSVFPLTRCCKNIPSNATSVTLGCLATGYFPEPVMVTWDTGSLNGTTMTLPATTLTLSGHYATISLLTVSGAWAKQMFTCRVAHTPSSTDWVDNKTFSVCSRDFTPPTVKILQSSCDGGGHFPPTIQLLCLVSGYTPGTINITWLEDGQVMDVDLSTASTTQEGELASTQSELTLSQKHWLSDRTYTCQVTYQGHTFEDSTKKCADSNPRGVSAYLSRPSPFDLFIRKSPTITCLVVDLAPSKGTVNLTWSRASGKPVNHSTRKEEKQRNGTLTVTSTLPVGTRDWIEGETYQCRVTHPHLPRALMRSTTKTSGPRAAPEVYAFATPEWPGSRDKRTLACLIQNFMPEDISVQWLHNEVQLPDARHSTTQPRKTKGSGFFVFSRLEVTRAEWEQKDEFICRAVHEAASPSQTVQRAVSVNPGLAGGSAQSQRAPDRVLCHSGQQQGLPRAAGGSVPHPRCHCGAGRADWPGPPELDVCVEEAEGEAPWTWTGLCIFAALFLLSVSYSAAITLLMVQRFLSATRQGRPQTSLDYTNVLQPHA
measurement.name: IC50 (µg/mL)
Give just the number in µg/mL; leave the unit off.

VL18E2_Y34H (antibody, V domains shown) VH: QLQLVESGGGLVQPGGSLRLSCAASGFTFSSYVMSWVRQAPGKGLEWVSSIYHDGSHTYYADFVKGRFTISRDNAKNTLYLQMNSLKSEDTAVYYCASGTSYSGSYYYTDPFFGSWGQGTQVTVSS VL: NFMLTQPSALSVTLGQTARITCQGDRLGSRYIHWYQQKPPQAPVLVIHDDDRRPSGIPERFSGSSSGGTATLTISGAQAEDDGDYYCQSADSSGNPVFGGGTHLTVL    1.1
18B9 human IgG1 mAb (antibody, V domains shown, human IgG1 and human light chain constant domains; also called clone 18B9) VH: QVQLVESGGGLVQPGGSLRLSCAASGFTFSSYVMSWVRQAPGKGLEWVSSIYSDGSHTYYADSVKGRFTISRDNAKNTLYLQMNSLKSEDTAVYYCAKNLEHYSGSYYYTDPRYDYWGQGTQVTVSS VL: SSALTQPSALSVTLGQTAKITCQGGSLGSSYVHWYQQKPGQAPVLVIYDGDSRPSGIPERFSGSSSGGTATLTISGAQAEDEDDYYCQSADSSGNAVFGGGTHLTVL    0.662

API: the following record is the query input.
IC50 for VL3D1_Y49H VL3D1_Q89H (antibody, V domains shown) VH: QLQVVESGGGLVQPGGSLRLSCAASGFTFSSYYMSWVRQAPGKGLEWVSSIYSDGRGSKTFYADSVKGRFTISRDNAKNTLYLQMNSLKSEDTAVYFCAKDLLVAARGSMDYWGQGTQVTVSS VL: NFMLTQPSAVSVSLEQTARITCQGGTLGSYGAHWYQQKPGQAPVLLIHGDNSRPSGIPERFSGTRSGGTATLTISGAQAEDEADYYCHSFDYSGNAVFGGGTHLTVL ?
4.41
